system: Vero E6 infected with SARS-CoV-2; assay: inhibition of SARS-CoV-2 cytopathic effect; higher = more antiviral protection, active = above 15; settings: 8.33 nM; 48 h
measurement_label: inhibition of SARS-CoV-2 cytopathic effect (%)
Answer with a number only, understood to be in %.

[[record]]
molecule = "O=C(O)CCN(O)C(=O)CCCCCCCCC1CC1"
measurement = -1.05

[[record]]
molecule = "O=C(O)CN1C(=O)c2cccc3cccc(c23)C1=O"
measurement = 3.1

[[record]]
molecule = "CN/C(=N\\S(=O)(=O)c1ccc(Cl)cc1)N1C[C@H](c2ccccc2)C(c2ccc(Cl)cc2)=N1 (racemic)"
measurement = -0.66

[[record]]
molecule = "Cc1cccc(OCC(O)CNC(C)(C)C)c1C (configuration not stated)"
measurement = -1.82

[[record]]
molecule = "CCn1cc(C(=O)O)c(=O)c2ccc(-c3ccncc3)cc21"
measurement = -0.12

[[record]]
molecule = "Cc1ccccc1C(=O)Nc1ccc(C(=O)N2CCCC(N(C)C)c3ccccc32)cc1 (configuration not stated)"
measurement = 1.45

[[record]]
molecule = "CC(C)(C)C(=O)OCOP(=O)(COCCn1cnc2c(N)ncnc21)OCOC(=O)C(C)(C)C"
measurement = 1.23

[[record]]
molecule = "Cc1sc2c(c1C)C(c1ccc(Cl)cc1)=N[C@@H](CC(N)=O)c1nnc(C)n1-2"
measurement = -0.88

[[record]]
molecule = "O=C(O)c1cc(/N=N/c2ccc(S(=O)(=O)Nc3ccccn3)cc2)ccc1O"
measurement = -2.23

[[record]]
molecule = "Cn1nnc(-c2ccc(-c3ccc(N4C[C@H](COP(=O)(O)O)OC4=O)cc3F)cn2)n1 [tedizolid-phosphate]"
measurement = -1.24


Short answer for CCN(CCCCOC(=O)c1ccc(OC)c(OC)c1)C(C)Cc1ccc(OC)cc1 (configuration not stated) : inhibition of SARS-CoV-2 cytopathic effect was -1.75

# inhibition of SARS-CoV-2 cytopathic effect (molecule: "Cc1cc(C(C)(C)C)c(O)c(C)c1CC1=NCCN1" ) is 1.83

inhibition of SARS-CoV-2 cytopathic effect reading for "CCCCS(=O)(=O)N[C@@H](Cc1ccc(OCCCCC2CCNCC2)cc1)C(=O)O" : 1.13

Entry COc1ccc(C2CNC(=O)C2)cc1OC1CCCC1 (configuration not stated) — recorded inhibition of SARS-CoV-2 cytopathic effect = 0.267

So for "CCC(=O)O[C@@H]1CC(=O)O[C@H](C)C/C=C/C=C/[C@H](O)[C@H](C)C[C@H](CC=O)[C@H](O[C@@H]2O[C@H](C)[C@@H](O[C@H]3C[C@@](C)(O)[C@@H](OC(=O)CC)[C@H](C)O3)[C@H](N(C)C)[C@H]2O)[C@H]1OC" , the logged inhibition of SARS-CoV-2 cytopathic effect turned out to be -3.06

The molecule identified as "CNC(=O)c1cc(Oc2ccc(NC(=O)Nc3ccc(Cl)c(C(F)(F)F)c3)cc2)ccn1" registered its inhibition of SARS-CoV-2 cytopathic effect at 1.38

For "Cc1nn(C)c2nc(NNC(=O)Nc3cc(Cl)nc(Cl)c3)cc(C(C)C)c12" the molecule record lists inhibition of SARS-CoV-2 cytopathic effect as -3.45

* * *

system: Vero E6 infected with SARS-CoV-2; experiment: inhibition of SARS-CoV-2 cytopathic effect; higher = more antiviral protection, active = above 15; conditions: 833.33 nM; 48 h
measurement_label: inhibition of SARS-CoV-2 cytopathic effect (%)
Expressed in %, but write only the number.

compound "O=C1O[C@H]([C@@H](O)CO)C(O)=C1O" , inhibition of SARS-CoV-2 cytopathic effect observed: -0.21

Noted for CNC[C@H](O)c1ccc(O)c(O)c1 [epinephrine] : its inhibition of SARS-CoV-2 cytopathic effect reads 0.24

The recorded inhibition of SARS-CoV-2 cytopathic effect for "COc1ccc(NS(=O)(=O)c2ccc(I)cc2)cc1N1CCN(C)CC1" is 0.95

The recorded inhibition of SARS-CoV-2 cytopathic effect for entry "CCCN1CCC[C@@H]2Cc3nc(N)ncc3C[C@H]21" equals -1.2

Notebook: NC(=O)NC1NC(=O)NC1=O (stereo not given) , inhibition of SARS-CoV-2 cytopathic effect read as -1.11

The compound "O=C(Nc1ccc(F)cc1)N1CCc2ccccc2[C@@H]1c1ccc(C(F)(F)F)cc1" showed inhibition of SARS-CoV-2 cytopathic effect equal to -1.97

According to the records, this compound "O=C(Cc1ccc(-c2ccc(OCCN3CCOCC3)cc2)cn1)NCc1ccccc1" displays inhibition of SARS-CoV-2 cytopathic effect of -1.51

Documented inhibition of SARS-CoV-2 cytopathic effect of "Cc1cc(-c2ncc(CC(=O)Nc3ccc(-c4cnccn4)cn3)cc2C)ccn1" : 1.44

// inhibition of SARS-CoV-2 cytopathic effect lookup, compound = "Nc1nc2c(cnn2CCc2ccccc2)c2nc(-c3ccco3)nn12" , result: -2.26

Sure, the documented inhibition of SARS-CoV-2 cytopathic effect for "CC(=O)NCC(=O)N1[C@@H]2CC[C@H]1c1ccc(Nc3ncc(C(F)(F)F)c(NC4CCC4)n3)cc12" is -4.63

* * *

system: Vero E6 infected with SARS-CoV-2; test: SARS-CoV-2 infection rate relative to infected DMSO; higher = more infection, active = 60 or less; conditions: 24 h
SARS-CoV-2 infection rate listing for selected compounds.

[[record]]
compound = "C=CCN1CCCC1CNC(=O)c1cc2nn[nH]c2cc1OC (stereo not drawn) [alizapride] (10 µM)"
experimental_system = "Vero E6 infected with SARS-CoV-2"
measurement_label = "SARS-CoV-2 infection rate"
measurement = "121% (inactive)"

[[record]]
compound = "O=C(O)c1ccc2c(c1)nc(Nc1cccc(Cl)c1)c1ccncc12 (10 µM)"
experimental_system = "Vero E6 infected with SARS-CoV-2"
measurement_label = "SARS-CoV-2 infection rate"
measurement = "103% (inactive)"

[[record]]
compound = "CCCN1CCC[C@@H]2Cc3nc(N)ncc3C[C@H]21 [quinelorane] (10 µM)"
experimental_system = "Vero E6 infected with SARS-CoV-2"
measurement_label = "SARS-CoV-2 infection rate"
measurement = "106% (inactive)"


# ---- query compound ----
Entry CCC(=O)NO (10 µM) , SARS-CoV-2 infection rate reported as 112% (inactive)

* * *

system: Vero E6 infected with SARS-CoV-2; experiment: inhibition of SARS-CoV-2 cytopathic effect; higher = more antiviral protection, active = above 15; details: 833.33 nM; 48 h
measurement_label: inhibition of SARS-CoV-2 cytopathic effect (%)
# output: bare number, implied unit %

[[record]]
chemical_structure = "CCC(=O)N1CCN(c2ccc(-n3c(=O)ccc4cnc5ccc(-c6cnc7ccccc7c6)cc5c43)cc2C(F)(F)F)CC1"
measurement = -0.28


Note to self: inhibition of SARS-CoV-2 cytopathic effect recorded for "COc1ccc(C2(CNC(=O)c3ccc(NC(=O)c4ccco4)cc3)CCOCC2)cc1" was -1.65

For reference, reported inhibition of SARS-CoV-2 cytopathic effect for "C/C=C1\NC(=O)[C@H]2CSSCC/C=C/[C@H](CC(=O)N[C@H](C(C)C)C(=O)N2)OC(=O)[C@H](C(C)C)NC1=O" stands at -16.6

Documented inhibition of SARS-CoV-2 cytopathic effect of "N#Cc1cc(-c2n[nH]c(-c3ccncc3)n2)ccn1" : -0.47

* * *

test system: Vero E6 infected with SARS-CoV-2; assay: SARS-CoV-2 infection rate relative to infected DMSO; higher = more infection, active = 60 or less; details: 24 h
Write down the outcome that applies. Available outcomes: active, inactive

Look over these answered cases.
[[record]]
compound = "CC1(CN)Cc2ccccc2C1 (10 µM)"
experimental_system = "Vero E6 infected with SARS-CoV-2"
class_name = "inactive"

[[record]]
compound = "Cn1c(-c2ccccc2)nnc1S(C)(=O)=O (10 µM)"
experimental_system = "Vero E6 infected with SARS-CoV-2"
class_name = "inactive"

[[record]]
compound = "CC(=O)N1CCN(C)CC1 [1-acetyl-4-methylpiperazine] (10 µM)"
experimental_system = "Vero E6 infected with SARS-CoV-2"
class_name = "inactive"


Prompt: Test call for this compound, please: CC(C)(C)Nc1nc(Nc2ccc(C(N)=O)cc2)cc(N)c1C#N (0.833333 µM)
Completion: inactive

* * *

system: Vero E6 infected with SARS-CoV-2; experiment: inhibition of SARS-CoV-2 cytopathic effect; higher = more antiviral protection, active = above 15; conditions: 100 nM; 48 h
measurement_label: inhibition of SARS-CoV-2 cytopathic effect (%)
Express your answer in %, writing the number without its unit.

[[record]]
compound = "CC(C)c1nnc(-c2ccc(-c3ccccc3)nc2)n1-c1cccc2nonc12"
measurement = -0.24

[[record]]
compound = "Cc1cc(C)c2nc(-c3ccccn3)cc(C(=O)Nc3ccc(S(=O)(=O)Nc4onc(C)c4C)cc3)c2c1"
measurement = -0.62


In plain terms, CCc1ccc(C(=O)C(C)CN2CCCCC2)cc1 (centres undefined) has a documented inhibition of SARS-CoV-2 cytopathic effect of 3.36

Entry "O=C1C[C@@H](c2ccc(O)cc2)Oc2cc(O)ccc21" — recorded inhibition of SARS-CoV-2 cytopathic effect = 2.13

The value of inhibition of SARS-CoV-2 cytopathic effect measured for the compound "OC[C@H]1NC[C@@H](O)[C@@H](O)[C@@H]1O" turned out to be -0.54

Value of inhibition of SARS-CoV-2 cytopathic effect reported for the compound O=C(NC(NC(=S)Nc1ccc(F)c([N+](=O)[O-])c1)C(Cl)(Cl)Cl)C(c1ccccc1)c1ccccc1 (centres undefined) is 0.28
